Hello, the source for this data is ChEMBL document CHEMBL1149520, in case you need it.

test-description: Dissociation constant, pKa of the compound
Assay type: physicochemical
metric-name: pKa

- molecule: "NC(=O)CN[C@@H]1CC[C@H](OCc2cc(C(F)(F)F)cc(C(F)(F)F)c2)[C@H]1c1ccccc1 (racemic)"
  metric-name: "pKa"
  observed: 6.6
- molecule: "CN(CC(N)=O)[C@@H]1CC[C@H](OCc2cc(C(F)(F)F)cc(C(F)(F)F)c2)[C@H]1c1ccccc1 (racemic)"
  metric-name: "pKa"
  observed: 5.8

---

Substance-P receptor (Homo sapiens): reported IC50 for various compounds.
Sequence (P25103 whole entry): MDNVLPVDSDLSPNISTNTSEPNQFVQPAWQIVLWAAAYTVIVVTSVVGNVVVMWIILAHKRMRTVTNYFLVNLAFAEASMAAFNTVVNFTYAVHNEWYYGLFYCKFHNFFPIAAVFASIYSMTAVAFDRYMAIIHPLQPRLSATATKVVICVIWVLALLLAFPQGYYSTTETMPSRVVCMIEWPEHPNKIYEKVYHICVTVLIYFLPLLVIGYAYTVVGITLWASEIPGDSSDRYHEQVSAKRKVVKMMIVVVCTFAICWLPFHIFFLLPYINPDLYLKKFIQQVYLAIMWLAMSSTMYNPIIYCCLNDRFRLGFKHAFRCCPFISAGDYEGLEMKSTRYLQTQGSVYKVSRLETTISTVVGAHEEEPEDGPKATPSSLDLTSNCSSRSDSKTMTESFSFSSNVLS
metric-name: IC50 (nM)

Answered cases to consult:
- compound: "NC(=O)N[C@@H]1CC[C@H](OCc2cc(C(F)(F)F)cc(C(F)(F)F)c2)[C@H]1c1ccccc1 (racemic)"
  IC50 / nM: 3.5
- compound: "NC(=O)CN[C@@H]1CC[C@H](OCc2cc(C(F)(F)F)cc(C(F)(F)F)c2)[C@H]1c1ccccc1 (relative stereo)"
  IC50 / nM: 0.95
- compound: "NC[C@@H]1CC[C@H](OCc2cc(C(F)(F)F)cc(C(F)(F)F)c2)[C@H]1c1ccccc1 (racemic)"
  IC50 / nM: 2.7
- compound: "O=c1[nH]cc(CN[C@@H]2CC[C@H](OCc3cc(C(F)(F)F)cc(C(F)(F)F)c3)[C@H]2c2ccccc2)[nH]1 (racemic)"
  IC50 / nM: 5.2

a: NC(=O)CN[C@@H]1CC[C@H](OCc2cc(C(F)(F)F)cc(C(F)(F)F)c2)[C@H]1c1ccccc1 (racemic)
b: CN(C[C@@H]1CCC(=O)N1)[C@@H]1CC[C@H](OCc2cc(C(F)(F)F)cc(C(F)(F)F)c2)[C@H]1c1ccccc1
Kindly compare a with b and tell me which has the lower IC50 figure. Write the label of whichever entry you select.
b
(b: 0.81 nM, a: 1.3 nM)
